- test.protocol: Metabolism in rhesus monkey liver microsomes
- Assay type: in vitro ADME
- condition.set: rhesus monkey, liver microsomes; 1 μM substrate, 0.4 mg/mL protein, NADPH, 37 °C, 60 min; single incubation; read-out: CLint of authentic metabolite incubated
measured.metric: microsomal CLint at 1 μM (µL/min/mg)

Examples from the recorded data:
CCNCCN(CCN(CC)CC)c1cc(OC)c(O)cc1Br [Compound 4] | 12
CCNCCN(CCNCC)c1cc(OC)c(OC)cc1Br [Compound 5] | 7.3

1. CCNCCN(CCN(CC)CC)c1cc(OC)c(OC)cc1Br [Compound 3]
2. CCN(CC)CCN(CCN(CC)CC)c1cc(OC)c(O)cc1Br [Compound 2]
[in] Compare 1 and 2 by numeric microsomal CLint at 1 μM and name the larger one. State your choice using its label.
[out] 1
